For each of the molecules below, state its MIC.
test system: Bacillus subtilis; assay: In vitro antibacterial activity against Bacillus subtilis ATCC 6633; assay type: functional
Please give a number only; it is taken to be in µg/mL.

Any idea what its MIC is? The molecule is CCn1cc(C(=O)O)c(=O)c2cc(F)c(-n3cnc([N+](=O)[O-])c3)c(F)c21
0.39

Same lookup for CCn1cc(C(=O)O)c(=O)c2cc(F)c(-n3cnc4ccccc43)c(F)c21 , please.
0.05

Same lookup for CCn1cc(C(=O)O)c(=O)c2cc(F)c(-n3cccc3)cc21 , please.
0.05

Same lookup for CCn1cc(C(=O)O)c(=O)c2cc(F)c(-n3cnc(CN(C)C)c3)c(F)c21 , please.
6.25

Same lookup for CCn1cc(C(=O)O)c(=O)c2cc(F)c(-n3cnnc3)cc21 , please.
25

----------
For each of the molecules below, state its concentration at 1 h.
assay: Concentrations in serum after 60 minutes at 50 mg / kg oral administration; format: ADME, cell-free

Any idea what its concentration at 1 h is? The molecule is CCn1cc(C(=O)O)c(=O)c2cc(F)c(-n3cccc3)cc21 [IRLOXACIN]
2200 ng/mL

Same lookup for CCn1cc(C(=O)O)c(=O)c2cc(F)c(-n3cccc3)c(F)c21 , please.
7070 ng/mL

Same lookup for CCn1cc(C(=O)O)c(=O)c2cc(F)c(-n3ccnc3)cc21 , please.
2300 ng/mL

Same lookup for CCn1cc(C(=O)O)c(=O)c2cc(F)c(-n3cnc(C)c3)c(F)c21 , please.
29400 ng/mL

Same lookup for CCn1cc(C(=O)O)c(=O)c2cc(F)c(N3CCNCC3)cc21 [NORFLOXACIN] , please.
690 ng/mL

Same lookup for CCn1cc(C(=O)O)c(=O)c2cc(F)c(-n3ccnc3)c(F)c21 , please.
39300 ng/mL

----------
assay: In vivo acute toxicity against Escherichia coli (KC-14) was determined for the compound administered orally; type: organism-based; settings: mouse, po
For each of the molecules below, state its LD50.
Please give a number only; it is taken to be in mg/kg.

Any idea what its LD50 is? The molecule is CCn1cc(C(=O)O)c(=O)c2cc(F)c(N3CCNCC3)cc21 [NORFLOXACIN]
4000

Same lookup for CCn1cc(C(=O)O)c(=O)c2cc(F)c(-n3cnc(C)c3)c(F)c21 , please.
4000

Same lookup for CCn1cc(C(=O)O)c(=O)c2cc(F)c(-n3ccnc3)c(F)c21 , please.
4000

----------
tested on: Bacillus subtilis; assay: In vitro antibacterial activity against Bacillus subtilis ATCC 6633; format: functional
For each of the molecules below, state its log10 MIC.
Hey, these are logged values: log10 of MIC, µg/mL being the unit before logging.

Any idea what its log10 MIC is? The molecule is CCn1cc(C(=O)O)c(=O)c2cc(F)c(-n3cnc(C(=O)N(C)C)c3)c(F)c21
0.80

Same lookup for CCn1cc(C(=O)O)c(=O)c2cc(F)c(-n3cnc(C=O)c3)c(F)c21 , please.
-0.11

Same lookup for CCn1cc(C(=O)O)c(=O)c2cc(F)c(-n3ccnc3)c(SC)c21 , please.
-0.41

Same lookup for CCn1cc(C(=O)O)c(=O)c2cc(F)c(-n3ccnc3C)c(F)c21 , please.
-0.11

Same lookup for CCn1cc(C(=O)O)c(=O)c2cc(F)c(-n3cnc(C(=O)OC)c3)c(F)c21 , please.
1.10

Same lookup for CCn1cc(C(=O)O)c(=O)c2cc(F)c(-n3ccnc3)cc21 , please.
-0.11

Same lookup for CCn1cc(C(=O)O)c(=O)c2cc(F)c(-n3cccn3)cc21 , please.
-0.11

Same lookup for CCn1cc(C(=O)O)c(=O)c2cc(F)c(-n3ccnc3)c(OC)c21 , please.
-1.00

----------
assay: Total serum concentrations at 0 to 4 hours interval was determined by 50 mg / kg oral administration; assay type: ADME, cell-free
For each of the compounds below, state its Concentration in serum.

Any idea what its Concentration in serum is? The compound is CCn1cc(C(=O)O)c(=O)c2cc(F)c(-n3cccc3)cc21 [IRLOXACIN]
6800 ng/mL

Same lookup for CCn1cc(C(=O)O)c(=O)c2cc(F)c(-n3cnc(C)c3)c(F)c21 , please.
67900 ng/mL

Same lookup for CCn1cc(C(=O)O)c(=O)c2cc(F)c(-n3ccnc3)cc21 , please.
5500 ng/mL

Same lookup for CCn1cc(C(=O)O)c(=O)c2cc(F)c(N3CCNCC3)cc21 [NORFLOXACIN] , please.
2000 ng/mL

Same lookup for CCn1cc(C(=O)O)c(=O)c2cc(F)c(-n3ccnc3)c(F)c21 , please.
64900 ng/mL

Same lookup for CCn1cc(C(=O)O)c(=O)c2cc(F)c(-n3cccc3)c(F)c21 , please.
17200 ng/mL

----------
For each of the compounds below, state its LD50.
experiment: In vivo acute toxicity against Escherichia coli (KC-14) was determined for the compound administered intravenously; format: organism-based; details: mouse, iv
Please give a number only; it is taken to be in mg/kg.

Any idea what its LD50 is? The compound is CCn1cc(C(=O)O)c(=O)c2cc(F)c(-n3cnc(C)c3)c(F)c21
593

Same lookup for CCn1cc(C(=O)O)c(=O)c2cc(F)c(N3CCNCC3)c(F)c21 , please.
193

Same lookup for CCn1cc(C(=O)O)c(=O)c2cc(F)c(N3CCNCC3)cc21 [NORFLOXACIN] , please.
327

Same lookup for CCn1cc(C(=O)O)c(=O)c2cc(F)c(-n3ccnc3)c(F)c21 , please.
773

----------
For each of the compounds below, state its log10 of concentration at 2 h.
assay: Concentrations in serum after 120 minutes at 50 mg / kg oral administration; type: ADME, cell-free
Hey, these are logged values: log10 of concentration at 2 h, ng/mL being the unit before logging.

Any idea what its log10 of concentration at 2 h is? The compound is CCn1cc(C(=O)O)c(=O)c2cc(F)c(-n3cnc(C)c3)c(F)c21
4.00

Same lookup for CCn1cc(C(=O)O)c(=O)c2cc(F)c(-n3cccc3)c(F)c21 , please.
3.51

Same lookup for CCn1cc(C(=O)O)c(=O)c2cc(F)c(-n3ccnc3)cc21 , please.
3.04

Same lookup for CCn1cc(C(=O)O)c(=O)c2cc(F)c(-n3cccc3)cc21 , please.
2.92

Same lookup for CCn1cc(C(=O)O)c(=O)c2cc(F)c(N3CCNCC3)cc21 , please.
2.60

Same lookup for CCn1cc(C(=O)O)c(=O)c2cc(F)c(-n3ccnc3)c(F)c21 , please.
3.88

----------
experiment: Concentrations in serum after 240 minutes at 50 mg / kg oral administration; assay type: ADME
MEASURED_PROPERTY: log10 concentration at 4 h (log10 of the value in ng/mL)
Hey, these are logged values: log10 of concentration at 4 h, ng/mL being the unit before logging.

Any idea what its log10 concentration at 4 h is? The compound is CCn1cc(C(=O)O)c(=O)c2cc(F)c(-n3cnc(C)c3)c(F)c21
3.80

Same lookup for CCn1cc(C(=O)O)c(=O)c2cc(F)c(-n3cccc3)c(F)c21 , please.
3.22

Same lookup for CCn1cc(C(=O)O)c(=O)c2cc(F)c(N3CCNCC3)cc21 , please.
2.56

Same lookup for CCn1cc(C(=O)O)c(=O)c2cc(F)c(-n3ccnc3)c(F)c21 , please.
3.23

Same lookup for CCn1cc(C(=O)O)c(=O)c2cc(F)c(-n3cccc3)cc21 , please.
2.74

----------
test system: Pseudomonas aeruginosa; test: In vitro antibacterial activity against Pseudomonas aeruginosa IFO 3445; format: functional
For each of the molecules below, state its MIC.

Any idea what its MIC is? The molecule is CCn1cc(C(=O)O)c(=O)c2cc(F)c(-n3ccnc3C)c(F)c21
25 µg/mL

Same lookup for CCn1cc(C(=O)O)c(=O)c2cc(F)c(-n3cnc(C(=O)N(C)C)c3)c(F)c21 , please.
25 µg/mL

Same lookup for CCn1cc(C(=O)O)c(=O)c2cc(F)c(-n3cccn3)cc21 , please.
25 µg/mL

Same lookup for CCn1cc(C(=O)O)c(=O)c2cc(F)c(-n3cnc(C(=O)OC)c3)c(F)c21 , please.
25 µg/mL

Same lookup for CCn1cc(C(=O)O)c(=O)c2cc(F)c(-n3ccnc3)cc21 , please.
12.5 µg/mL

Same lookup for CCn1cc(C(=O)O)c(=O)c2cc(F)c(-n3cnnc3)cc21 , please.
25 µg/mL

Same lookup for CCn1cc(C(=O)O)c(=O)c2cc(F)c(-n3cnc(CO)c3)c(F)c21 , please.
25 µg/mL

Same lookup for CCn1cc(C(=O)O)c(=O)c2cc(F)c(-n3ccnc3)c(OC)c21 , please.
25 µg/mL

Same lookup for CCn1cc(C(=O)O)c(=O)c2cc(F)c(-n3cnc(/C=N/O)c3)c(F)c21 , please.
25 µg/mL

Same lookup for CCn1cc(C(=O)O)c(=O)c2cc(F)c(-n3cnc(CN(C)C)c3)c(F)c21 , please.
25 µg/mL

Same lookup for CCn1cc(C(=O)O)c(=O)c2cc(F)c(-n3cccc3)cc21 , please.
12.5 µg/mL

Same lookup for CCn1cc(C(=O)O)c(=O)c2cc(F)c(-n3cnc4c3CCCC4)c(F)c21 , please.
25 µg/mL

Same lookup for CCn1cc(C(=O)O)c(=O)c2cc(F)c(-n3ccnc3)c(SC)c21 , please.
25 µg/mL

Same lookup for CCn1cc(C(=O)O)c(=O)c2cc(F)c(-n3cccc3)c(F)c21 , please.
12.5 µg/mL

Same lookup for CCn1cc(C(=O)O)c(=O)c2cc(F)c(-n3cnc4ccccc43)c(F)c21 , please.
12.5 µg/mL

Same lookup for CCn1cc(C(=O)O)c(=O)c2cc(F)c(-n3cnc(Br)c3)c(F)c21 , please.
25 µg/mL

Same lookup for CCn1cc(C(=O)O)c(=O)c2cc(F)c(-n3cnc([N+](=O)[O-])c3)c(F)c21 , please.
25 µg/mL

Same lookup for CCn1cc(C(=O)O)c(=O)c2cc(F)c(-n3cnc(C=O)c3)c(F)c21 , please.
25 µg/mL
